Target: Follistatin-related protein 3 (Homo sapiens)
Assay: FSTL3 binders on small-molecule microarrays, primary screen, biochemical, small-molecule microarray, 635 nm fluorescence (AID 1105);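 further: score merges emission near 667 nm and signal to noise per printed spot across three slides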
Details: FSTL3 binding, higher = more signal
quantity: composite z-score

compound: C=CC[C@]1(C(=O)NCC(O)CO)N=C(c2ccc(OCCCO)cc2)O[C@H]1c1ccccc1CN=[N+]=[N-] (some centres not stated)
quantity: composite z-score
reading: -1.17

compound: CCOC(=O)C[C@H]1[C@H](OC(=O)c2cc3ccccc3oc2=O)[C@@H](NC(=O)c2ccc(-c3ccccc3)cc2)c2cc(OCCCO)ccc2N1C(=O)Cc1ccc(OC)cc1
quantity: composite z-score
reading: 0.686

compound: C[C@H]1C2[C@H](Cc3ccccc3)NC(=O)[C@]23C(=O)N[C@@H](Cc2ccccc2)C(=O)N2CCC[C@H]2C(=O)NC/C=C/CC/C=C/C3[C@@H]2O[C@]12C (some centres not stated)
quantity: composite z-score
reading: 0.895

compound: CC(C)[Si](C#Cc1ccccc1)(O[C@H](c1ccccc1)c1cn(Cc2ccccc2)nn1)C(C)C
quantity: composite z-score
reading: 1.49

compound: COc1ccc([Si](C)(C)[C@H]2[C@H](CC(=O)N3CCC[C@H]3CO)O[C@@]3(C(=O)N(C)c4ccccc43)[C@@H]2C)cc1
quantity: composite z-score
reading: 0.705

compound: CC[C@@H](O[Si](C#C[Si](C(C)C)(C(C)C)C(C)C)(C(C)C)C(C)C)c1cn(Cc2cccc(Cl)c2)nn1
quantity: composite z-score
reading: 0.775

compound: O=C1c2ccccc2[C@](Cc2ccccc2I)(C(=O)NCCN2CCOCC2)[C@H](c2ccc(CO)cc2)N1Cc1ccccc1C(F)(F)F
quantity: composite z-score
reading: 0.276

###

Molecular target: Carbonic anhydrase 2 (Homo sapiens) (UniProt P00918)
Test: CAII small-molecule binders, profiling panel, biochemical, small-molecule microarray, Alexa647-labelled CAII (AID 1122)
Conditions: CAII-A647 binding fluorescence, higher = more signal

compound: COC(=O)[C@@]1(Cc2ccc(F)cc2)[C@@H]2C(=CC(=O)[C@H]2CC(=O)C(=O)N2CCCC2)CN1C(=O)c1ccccc1
target-or-system: Carbonic anhydrase 2 (Homo sapiens) (UniProt P00918)
composite z-score: 0.65
//
compound: COC(=O)[C@H](Cc1ccccc1)N1CC(C)(OC)O[C@@H](Cc2ccccc2)[C@H]1/C=C/C1CC1 (stereo not given in full)
target-or-system: Carbonic anhydrase 2 (Homo sapiens) (UniProt P00918)
composite z-score: 0.348
//
compound: [N-]=[N+]=NCc1ccccc1[C@H]1OC(c2ccc(OCCCO)cc2)=N[C@@]1(CCS(=O)(=O)c1ccccc1)C(=O)O
target-or-system: Carbonic anhydrase 2 (Homo sapiens) (UniProt P00918)
composite z-score: 0.754
//
compound: COCCCNC(=O)[C@]1(Cc2ccccc2CN=[N+]=[N-])N=C(c2ccc(OCCCO)cc2)O[C@@H]1c1ccccc1N=[N+]=[N-]
target-or-system: Carbonic anhydrase 2 (Homo sapiens) (UniProt P00918)
composite z-score: 0.525
//
compound: COC(=O)[C@@]1(Cc2ccc(F)cc2)[C@H]2c3cc(C(=O)N4CCCC4)n(Cc4ccc(OC(F)(F)F)cc4)c3C[C@H]2CN1C(=O)c1ccccc1
target-or-system: Carbonic anhydrase 2 (Homo sapiens) (UniProt P00918)
composite z-score: 0.861
//
compound: COC(=O)c1ccc(OC)c(/C=C\CC(OC(=O)c2ccncc2)c2ccccc2)c1 (stereo not given)
target-or-system: Carbonic anhydrase 2 (Homo sapiens) (UniProt P00918)
composite z-score: 0.387
//
compound: COC(=O)[C@@]1(Cc2ccccc2)[C@H]2c3cc(C(=O)N(C)C)n(Cc4nc5ccccc5[nH]4)c3C[C@H]2CN1C(=O)c1ccccc1
target-or-system: Carbonic anhydrase 2 (Homo sapiens) (UniProt P00918)
composite z-score: 0.826
//
compound: C=CCC(OC(C)=O)[C@@H]1[C@@H](N(Cc2cccc3ccccc23)C(=O)c2ccc(C)cc2)c2cc(OCCCO)ccc2N1C(=O)Cc1ccc2ccccc2c1 (stereo not given in full)
target-or-system: Carbonic anhydrase 2 (Homo sapiens) (UniProt P00918)
composite z-score: 0.15
//
compound: C=C(C(=O)CC[C@@H](OC(=O)c1ccccc1-c1ccccc1C(=O)O)c1cccc(OCCO)c1)C(C)C
target-or-system: Carbonic anhydrase 2 (Homo sapiens) (UniProt P00918)
composite z-score: 0.555
//
compound: COC(=O)C1(CC(C)C)C=C2C(=C(C)C(=O)C2C)CN1 (stereo not given)
target-or-system: Carbonic anhydrase 2 (Homo sapiens) (UniProt P00918)
composite z-score: 0.754
//
compound: C=CC[C@]1(C(=O)NCCN2CCOCC2)N=C(c2ccc(OCCCO)cc2)O[C@H]1c1ccccc1
target-or-system: Carbonic anhydrase 2 (Homo sapiens) (UniProt P00918)
composite z-score: 0.703
//
compound: CC(=O)NCCCC[C@@H]1NC(=O)[C@H]2C[C@@H](C(=O)O)[C@@H](c3cccc(OCCO)c3)N2C1=O
target-or-system: Carbonic anhydrase 2 (Homo sapiens) (UniProt P00918)
composite z-score: 0.415
//
compound: CC[C@H]1C2=C3C(CC[C@H]4C(OCc5ccc(F)cc5C(F)(F)F)OC[C@](C)([C@@H]34)N(C(=O)OC(C)(C)C)C2)C(COC(C)=O)C1COC(C)=O (stereo not given in full)
target-or-system: Carbonic anhydrase 2 (Homo sapiens) (UniProt P00918)
composite z-score: 0.345
//
compound: C=C(CC1([C@@H](NP(=O)(c2ccccc2)c2ccccc2)[C@H]2C[C@@H]2CCCC)CC1)c1cccc(OC)c1
target-or-system: Carbonic anhydrase 2 (Homo sapiens) (UniProt P00918)
composite z-score: 0.334
//
compound: O=C1OCCC/C=C\[C@H]2OC34C=CCN(Cc5ccccc5)C(=O)[C@H]3N(CCO)C(=O)[C@@H]4C12 (stereo not given in full)
target-or-system: Carbonic anhydrase 2 (Homo sapiens) (UniProt P00918)
composite z-score: 0.885
